Cited source for all entries: paper PMC6753678

- Test system: HepG2 cells
- Test Details: HepG2 cytotoxicity assay
- Stated Conditions: HepG2 cytotoxicity unified across the three screens
Label condition met for high-side Unified cytotox (at or above 3 µM) and condition not met for low-side Unified cytotox (below it).

Confirm if Unified cytotox reported for the compound CS(=O)(=O)O.FC(F)(F)COc1ccc2ccccc2c1CCNCCCCNCCc1c(OCC(F)(F)F)ccc2ccccc12 is 3 µM or above.
condition not met

Confirm if Unified cytotox reported for the compound COc1ccc(CNC2Cc3ccccc3C2)cc1-c1ccc(OC)c(S(=O)(=O)NCCN2CCCC2)c1.O=C(O)C(F)(F)F is 3 µM or above.
condition met

Confirm if Unified cytotox reported for the compound COc1c(C2CCN(CCN3CCC(CNC(=O)c4ccc(-c5ccc(C#N)cc5)cc4)CC3)CC2)ccc2c1CCCC2 is 3 µM or above.
condition met

Confirm if Unified cytotox reported for the compound COc1ccc2c(c1CCNCCCCNCCc1c(OC)ccc3c1CCCC3)CCCC2.CS(=O)(=O)O is 3 µM or above.
condition not met

Confirm if Unified cytotox reported for the compound CC(C)(C)c1ccc(CN2CCC(CNC(=O)c3cc(-c4ccccc4C(F)(F)F)cs3)C2)cc1.O=C(O)C(F)(F)F (stereo not drawn) is 3 µM or above.
condition met

Confirm if Unified cytotox reported for the compound CC(C)(C)c1ccc(CN2CCC(CNC(=O)c3cc(-c4cccc(C(F)(F)F)c4)cs3)C2)cc1.O=C(O)C(F)(F)F (stereo not drawn) is 3 µM or above.
condition met

Confirm if Unified cytotox reported for the compound COc1ccc2c(OC)c(CNCCCCCCNCc3ccc4cc(OC)ccc4c3OC)ccc2c1.CS(=O)(=O)O is 3 µM or above.
condition not met

Confirm if Unified cytotox reported for the compound Nc1nc(N)c2c(ccc3c2ccn3Cc2ccc(-c3ccccc3)cc2)n1 is 3 µM or above.
condition not met

Confirm if Unified cytotox reported for the compound Cl.Nc1c(I)cc(C(=O)Nc2ccc3nc4c(c(N)c3c2)CCCC4)cc1I is 3 µM or above.
condition met

Confirm if Unified cytotox reported for the compound COc1cccc(OC)c1CN1CCC(N(C)CCCCCCCCN2CCC(OC(=O)Nc3ccccc3-c3ccccc3)CC2)CC1 is 3 µM or above.
condition not met

Confirm if Unified cytotox reported for the compound Cc1sc2ncnc(Sc3nnc(N)s3)c2c1C is 3 µM or above.
condition met

Confirm if Unified cytotox reported for the compound CCCCCCOc1ccc2ccccc2c1CNCCCCCCNCc1c(OCCCCCC)ccc2ccccc12.CS(=O)(=O)O is 3 µM or above.
condition not met

Confirm if Unified cytotox reported for the compound SC(=Nc1ccc(Cl)c(Cl)c1)NN=Cc1ccccn1 is 3 µM or above.
condition met

Confirm if Unified cytotox reported for the compound Fc1ccc2[nH]c(-c3cccc(-c4ccc(CN5CCC(CCN6CCCCC6)CC5)cc4)c3)nc2c1.O=C(O)C(F)(F)F is 3 µM or above.
condition met

Confirm if Unified cytotox reported for the compound COc1ccc(CCNCCCCCCNCCc2ccc(Cl)c3ccccc23)cc1OC.Cl is 3 µM or above.
condition not met

----------
- System: HepG2 cells
- Test Details: HepG2 cytotoxicity assay
- Stated Conditions: HepG2 cytotoxicity listed with the Pb ODA data set (this manuscript)
Label yes (1) for high-side Pb ODA (this manuscript) HepG2 cytoxicity (at or above 0.06 µM) and no (0) for low-side Pb ODA (this manuscript) HepG2 cytoxicity (below it).

Confirm if Pb ODA (this manuscript) HepG2 cytoxicity reported for the molecule Cl.Nc1nc(N)c2c(ccc3c2cnn3S(=O)(=O)N2CCCC2)n1 [TCMDC-137852] is 0.06 µM or above.
no (0)

Confirm if Pb ODA (this manuscript) HepG2 cytoxicity reported for the molecule CC(=O)Oc1c(Br)c(C)nc(C)c1-c1ccc(Oc2ccc(OC(F)(F)F)cc2)cc1 [TCMDC-137383] is 0.06 µM or above.
yes (1)

Confirm if Pb ODA (this manuscript) HepG2 cytoxicity reported for the molecule CCCCCCCc1c(C)[nH]c2ccc(F)cc2c1=O [TCMDC-137269] is 0.06 µM or above.
yes (1)

Confirm if Pb ODA (this manuscript) HepG2 cytoxicity reported for the molecule COc1cc(F)c2ncc(Cl)c(CCN3CCC(NCc4ccc5c(n4)NC(=O)CO5)CC3)c2c1.Cl [TCMDC-135621] is 0.06 µM or above.
yes (1)

Confirm if Pb ODA (this manuscript) HepG2 cytoxicity reported for the molecule Cc1noc(C)c1-c1ccc2c(Nc3ccc(Cl)cc3)c(C(N)=O)cnc2c1.Cl [TCMDC-136010] is 0.06 µM or above.
yes (1)

Confirm if Pb ODA (this manuscript) HepG2 cytoxicity reported for the molecule CCOC(=O)NC1=NC(=N)N(OCCCOc2cc(Cl)c(Cl)cc2Cl)C(C)(C)N1 [TCMDC-131741] is 0.06 µM or above.
no (0)

Confirm if Pb ODA (this manuscript) HepG2 cytoxicity reported for the molecule CCCCCCc1c(C)nc2cc(OC)ccc2c1O [TCMDC-138010] is 0.06 µM or above.
yes (1)

Confirm if Pb ODA (this manuscript) HepG2 cytoxicity reported for the molecule Cc1[nH]c(C)c(-c2ccc(CCc3ccc(F)cc3F)cc2)c(=O)c1Br [TCMDC-135461] is 0.06 µM or above.
yes (1)

Confirm if Pb ODA (this manuscript) HepG2 cytoxicity reported for the molecule Nc1nc(N)c2c(ccc3c2cnn3Cc2cccnc2)n1 [TCMDC-131932] is 0.06 µM or above.
no (0)

Confirm if Pb ODA (this manuscript) HepG2 cytoxicity reported for the molecule CCN(CC)S(=O)(=O)n1ncc2c3c(N)nc(N)nc3ccc21.Cl [TCMDC-137302] is 0.06 µM or above.
no (0)

Confirm if Pb ODA (this manuscript) HepG2 cytoxicity reported for the molecule Br.CC1(C)N=C(N)N=C(N)N1OCCc1cccc2ccccc12 [TCMDC-131663] is 0.06 µM or above.
no (0)

Confirm if Pb ODA (this manuscript) HepG2 cytoxicity reported for the molecule O=C(Nc1ccc(N2CCCN(Cc3cccc(F)c3)CC2)cc1)c1cccs1.O=C(O)C(F)(F)F [TCMDC-135012] is 0.06 µM or above.
yes (1)

Confirm if Pb ODA (this manuscript) HepG2 cytoxicity reported for the molecule CC1(C)NC(N)=NC(=N)N1OCOc1ccc(Cl)cc1.Cl [TCMDC-131734] is 0.06 µM or above.
yes (1)

Confirm if Pb ODA (this manuscript) HepG2 cytoxicity reported for the molecule Br.CC[C@H]1CN2CCc3cc(OC)c(OC)cc3[C@@H]2C[C@@H]1C[C@H]1NCCc2c1cc(OC)c(O)c2I [TCMDC-131829] is 0.06 µM or above.
yes (1)

Confirm if Pb ODA (this manuscript) HepG2 cytoxicity reported for the molecule COc1ccc(Cn2ncc3c4c(N)nc(N)nc4ccc32)cc1OC [TCMDC-131934] is 0.06 µM or above.
no (0)

Confirm if Pb ODA (this manuscript) HepG2 cytoxicity reported for the molecule COc1ccc2nccc(NC(=O)C3CCC(NCc4cnc(SC)c([N+](=O)[O-])c4)CC3)c2n1.Cl (stereo not drawn) [TCMDC-131238] is 0.06 µM or above.
yes (1)

Confirm if Pb ODA (this manuscript) HepG2 cytoxicity reported for the molecule Cc1cc(=O)c(-c2ccc(Oc3cccc(C(F)(F)F)c3)cc2)c(C)[nH]1 [TCMDC-133308] is 0.06 µM or above.
yes (1)

Confirm if Pb ODA (this manuscript) HepG2 cytoxicity reported for the molecule Br.CC(CCON1C(N)=NC(N)=NC1(C)C)c1ccc(Cl)cc1 (stereo not drawn) [TCMDC-131721] is 0.06 µM or above.
no (0)

----------
- Test system: HepG2 cells
- Test Details: HepG2 cytotoxicity assay
- Stated Conditions: read-out: HepG2 cytotoxicity assay IC50; dose response confirmation
Readout Name: pIC50
// pIC50: -log10(molar conc.)

Fill in: pIC50 on HepG2 cells, entry CC(C)c1nc(N2CCN(C(=S)NCc3ccccc3)CC2)c(C#N)c2c1COC(C)(C)C2 [TCMDC-124093]
8.77

Fill in: pIC50 on HepG2 cells, entry CN(Cc1cccc(F)c1)C1CCN(c2cc(NC(=O)c3ccc(F)cc3)ccn2)CC1.O=C(O)C(F)(F)F [TCMDC-135018]
6.85

Fill in: pIC50 on HepG2 cells, entry CN1CCN(c2ccc(Nc3ncc(C#N)c(Nc4ccccc4C(N)=O)n3)cc2)CC1.Cl [TCMDC-134116]
5.61

Fill in: pIC50 on HepG2 cells, entry CCN(CC)c1nc(N)c2c(N)nc3c(c2c1C#N)C(=O)CN3Cc1ccccc1 [TCMDC-125024]
4.00

Fill in: pIC50 on HepG2 cells, entry Cc1[nH]c(C)c(-c2ccc(OCc3cc(F)cc(F)c3)nc2)c(=O)c1Br [TCMDC-135683]
4.59

Fill in: pIC50 on HepG2 cells, entry COc1ccc2nccc(NC(=O)C3(O)CCC(NCc4ccc5c(c4)NCCS5)CC3)c2n1.Cl (stereo not shown) [TCMDC-141406]
4.61

Fill in: pIC50 on HepG2 cells, entry CC[C@H]1CN2CCc3cc(OC)c(OC)cc3[C@@H]2C[C@@H]1C[C@H]1NCCc2c1cc(OC)c(O)c2Cl [TCMDC-131802]
5.34

Fill in: pIC50 on HepG2 cells, entry COc1nc2c(CCN3CCC(NCc4ccc5c(n4)NC(=O)CO5)CC3)c(Cl)cnc2cc1F.Cl [TCMDC-135766]
4.37

Fill in: pIC50 on HepG2 cells, entry Cc1ccc(-n2c(Sc3ncnc4sccc34)nnc2N2CCCC2)cc1 [TCMDC-125247]
4.13

Fill in: pIC50 on HepG2 cells, entry COc1cc(F)c2ncc(Cl)c(CCN3CCC(NCc4ccc5c(n4)NC(=O)CO5)CC3)c2c1.Cl [TCMDC-135621]
4.56

Fill in: pIC50 on HepG2 cells, entry Nc1nc(N)c2c(ccc3c2cnn3Cc2cccnc2)n1 [TCMDC-131932]
7.26

Fill in: pIC50 on HepG2 cells, entry Cc1[nH]c(C)c(-c2ccc(OCc3ccccc3)cc2)c(=O)c1Br [TCMDC-138901]
4.00

Fill in: pIC50 on HepG2 cells, entry O=C(c1cc(-c2ccco2)[nH]n1)N1CCN(S(=O)(=O)c2ccc(Br)cc2)CC1 [TCMDC-124699]
4.00

Fill in: pIC50 on HepG2 cells, entry CCCCCCCc1ccc(-c2c(C)[nH]c(C)c(Cl)c2=O)cn1 [TCMDC-135816]
4.51

Fill in: pIC50 on HepG2 cells, entry Cc1cccc2nc(-c3ccc(-c4ccc(CN5CC(C)OC(C)C5)cc4)cc3)[nH]c12.O=C(O)C(F)(F)F (stereo not shown) [TCMDC-133823]
4.82

Fill in: pIC50 on HepG2 cells, entry Cc1[nH]c(C)c(-c2ccc(-c3ccc(OC(F)(F)F)cc3)nc2)c(=O)c1Br [TCMDC-136016]
4.00
